# target_entity: EGFR (mouse) (UniProt P00533)
# condition_set: balb/mk cells
pIC50: −log10 of the molar value.
metric_name: pIC50

INSERT INTO measurements (compound_smiles, metric_name, endpoint_result) VALUES
  ('C=C(C)CN1C(=O)C(=C)SC1=NN=C1SCC(=O)N1C', 'pIC50', 6.00),
  ('C=CCN1C(=O)C(=C)SC1=NN=C1SCC(=O)N1C', 'pIC50', 5.99);

###

Some compounds, each annotated with its measured IC50.
# target_entity: EGFR (mouse)
# condition_set: balb/mk cells

Query (compound): C=CCN1C(=O)C(CC(=O)O)SC1=NN=C1SCC(=O)N1C (stereo unspecified) ; field requested: IC50
> 50 µM

Name the recorded IC50 for C=CCN1C(=O)C(C)SC1=NN=C1SCC(=O)N1C (stereo unspecified) .
> 50 µM

###

# target_entity: EGFR (human) (UniProt P00533)
# Sequence (P00533 whole entry, looked up): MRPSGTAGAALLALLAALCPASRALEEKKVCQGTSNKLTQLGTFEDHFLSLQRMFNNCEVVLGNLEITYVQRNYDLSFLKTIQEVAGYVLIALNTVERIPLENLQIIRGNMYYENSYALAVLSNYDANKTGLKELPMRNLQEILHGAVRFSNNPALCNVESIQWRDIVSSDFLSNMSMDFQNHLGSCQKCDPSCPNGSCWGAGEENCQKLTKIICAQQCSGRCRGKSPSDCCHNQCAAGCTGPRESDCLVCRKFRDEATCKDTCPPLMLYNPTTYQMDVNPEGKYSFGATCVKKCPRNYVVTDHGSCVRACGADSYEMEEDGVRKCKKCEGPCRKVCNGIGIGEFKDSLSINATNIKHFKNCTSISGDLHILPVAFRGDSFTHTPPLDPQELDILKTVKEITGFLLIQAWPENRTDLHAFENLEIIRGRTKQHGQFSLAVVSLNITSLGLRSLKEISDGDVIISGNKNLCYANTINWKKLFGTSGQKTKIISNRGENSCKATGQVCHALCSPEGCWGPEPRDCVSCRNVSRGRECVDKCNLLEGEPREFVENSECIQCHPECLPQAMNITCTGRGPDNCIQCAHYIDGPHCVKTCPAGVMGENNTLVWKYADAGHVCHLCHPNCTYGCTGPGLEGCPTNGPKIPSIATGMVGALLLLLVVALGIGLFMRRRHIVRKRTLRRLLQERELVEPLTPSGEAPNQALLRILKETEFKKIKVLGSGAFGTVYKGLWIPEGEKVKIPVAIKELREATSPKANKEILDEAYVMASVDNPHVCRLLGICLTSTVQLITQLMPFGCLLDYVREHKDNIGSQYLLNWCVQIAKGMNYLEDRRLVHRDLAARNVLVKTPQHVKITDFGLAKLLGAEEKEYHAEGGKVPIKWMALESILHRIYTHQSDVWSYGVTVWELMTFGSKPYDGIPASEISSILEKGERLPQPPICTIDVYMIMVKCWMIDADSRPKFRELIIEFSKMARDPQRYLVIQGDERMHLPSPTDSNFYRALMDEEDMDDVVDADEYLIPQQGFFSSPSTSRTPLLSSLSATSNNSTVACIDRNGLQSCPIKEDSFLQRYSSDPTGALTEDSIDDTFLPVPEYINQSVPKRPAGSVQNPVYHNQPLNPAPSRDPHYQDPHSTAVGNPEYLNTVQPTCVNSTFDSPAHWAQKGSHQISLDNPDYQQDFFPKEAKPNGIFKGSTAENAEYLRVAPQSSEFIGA
# condition_set: a431
pIC50: −log10 of the molar value.
metric_name: pIC50

Fill in the blank: the reported pIC50 of C=C(C)CN1C(=O)C(=C)SC1=NN=C1SCC(=O)N1C is ____.
4.60 to 4.90

###

# target_entity: EGFR (UniProt P00533)
# Sequence (P00533 whole entry, looked up): as above
metric_name: pKi
pKi is a log-scale quantity: -log10 of the concentration expressed in molar.

Form entry - test system: EGFR (UniProt P00533); read-out: pKi; compound: O=CN/C=C/c1cc(O)ccc1O
5.22

###

Measured pIC50 values are reported for all entries that follow.
# target_entity: EGFR (human) (UniProt P00533)
# condition_set: A431
pIC50: −log10 of the molar value.

Examples with their reported pIC50 follow.
INSERT INTO measurements (compound, target_entity, endpoint_result) VALUES
  ('C=C(C)CN1C(=O)C(=C)SC1=NN=C1SCC(=O)N1C', 'EGFR (human) (UniProt P00533)', 6.00),
  ('C=CCN1C(=O)C(C)SC1=NN=C1SCC(=O)N1C (stereo unspecified)', 'EGFR (human) (UniProt P00533)', '< 4.30'),
  ('N#CC(C#N)=Cc1cc(O)cc(O)c1', 'EGFR (human) (UniProt P00533)', 4.38),
  ('C=C(C)CN1C(=O)CSC1=NN=C1SCC(=O)N1C', 'EGFR (human) (UniProt P00533)', '< 4.30');

Name the recorded pIC50 for C=CCN1C(=O)C(CC(=O)O)SC1=NN=C1SCC(=O)N1C (stereo unspecified) .
< 4.00

Entry C=C(C)CN1C(=O)C(C)SC1=NN=C1SCC(=O)N1C (stereo unspecified) : reported pIC50 = ?
< 4.30

###

# target_entity: EGFR (human)
# condition_set: a431
pIC50: −log10 of the molar value.
metric_name: pIC50

1: C=C(C)CN1C(=O)C(=C)SC1=NN=C1SCC(=O)N1C
2: C=C(C)CN1C(=O)C(CO)SC1=NN=C1SCC(=O)N1C (centres undefined)
Which entry shows the lesser value of pIC50 here, 1 or 2 ? Indicate your choice by writing its label.
2
(2: 4.39, 1: 5.81)

###

# target_entity: EGFR (UniProt P00533)
metric_name: pIC50
Reminder that pIC50 is minus the log10 of a molar concentration.

Need pIC50, item CCOc1cc(/C=C(/C#N)C(N)=O)cc(Cc2ccccc2)c1O
6.00

###

# target_entity: EGFR (human) (UniProt P00533)
# condition_set: a431
compounds and their reported IC50

INSERT INTO assay_data (compound, endpoint_result) VALUES
  ('C=CCN1C(=O)C(CC(=O)O)SC1=NN=C1SCC(=O)N1C (stereo unspecified)', '> 50 µM'),
  ('C=C(C)CN1C(=O)C(CN(C)C)SC1=NN=C1SCC(=O)N1C (stereo unspecified)', '1.63 µM'),
  ('C=C(C)CN1C(=O)C(OS(=O)(=O)O)SC1=NN=C1SCC(=O)N1C (stereo unspecified)', '> 50 µM'),
  ('C=CCN1C(=O)C(=C)SC1=NN=C1SCC(=O)N1C', '1.51 µM'),
  ('C=C(C)CN1C(=O)C(O)SC1=NN=C1SCC(=O)N1C (stereo unspecified)', '> 50 µM');

Now for a further compound.
Item under review: C=C(C)CN1C(=O)C(C)SC1=NN=C1SCC(=O)N1C (stereo unspecified) . Reported IC50?
> 50 µM

###

# target_entity: EGFR (human)
# condition_set: A431
pIC50: −log10 of the molar value.
metric_name: pIC50

INSERT INTO measurements (compound, target_entity, metric_name, endpoint_result) VALUES
  ('C=CCN1C(=O)C(=C)SC1=NN=C1SCC(=O)N1C', 'EGFR (human)', 'pIC50', 5.22),
  ('O=CN/C=C/c1cc(O)ccc1O', 'EGFR (human)', 'pIC50', 4.90);

P: C=C(C)CN1C(=O)C(OS(=O)(=O)O)SC1=NN=C1SCC(=O)N1C (configuration not stated)
Q: CCOc1cc(/C=C(/C#N)C(N)=O)cc(Cc2ccccc2)c1O
R: C=C(C)CN1C(=O)C(CN(C)C)SC1=NN=C1SCC(=O)N1C (configuration not stated)
Output the entries ranked by pIC50 from maximum down to minimum. Please, when replying, give the labels in the order that was requested.
R, Q, P
(R: 5.70, Q: 5.05, P: 4.00)

###

# target_entity: EGFR (mouse) (UniProt P00533)
# condition_set: balb/mk cells
pIC50: −log10 of the molar value.
# reported pIC50; entries follow

Reference set (3 entries):
INSERT INTO results (compound, target_entity, endpoint_result) VALUES
  ('C=C(C)CN1C(=O)C(O)SC1=NN=C1SCC(=O)N1C (centres undefined)', 'EGFR (mouse) (UniProt P00533)', '< 4.30'),
  ('C=C(C)CN1C(=O)C(CN(C)C)SC1=NN=C1SCC(=O)N1C (centres undefined)', 'EGFR (mouse) (UniProt P00533)', 6.01),
  ('C=C(C)CN1C(=O)C(C)SC1=NN=C1SCC(=O)N1C (centres undefined)', 'EGFR (mouse) (UniProt P00533)', '< 4.30');

Param item = C=C(C)CN1C(=O)CSC1=NN=C1SCC(=O)N1C ; retrieve measured pIC50.
< 4.30
